Where these numbers come from: ChEMBL document CHEMBL5113400

Molecular target: Bcr/Abl fusion protein (Homo sapiens)
Sequence (P00519 whole entry, the tested form may be a part): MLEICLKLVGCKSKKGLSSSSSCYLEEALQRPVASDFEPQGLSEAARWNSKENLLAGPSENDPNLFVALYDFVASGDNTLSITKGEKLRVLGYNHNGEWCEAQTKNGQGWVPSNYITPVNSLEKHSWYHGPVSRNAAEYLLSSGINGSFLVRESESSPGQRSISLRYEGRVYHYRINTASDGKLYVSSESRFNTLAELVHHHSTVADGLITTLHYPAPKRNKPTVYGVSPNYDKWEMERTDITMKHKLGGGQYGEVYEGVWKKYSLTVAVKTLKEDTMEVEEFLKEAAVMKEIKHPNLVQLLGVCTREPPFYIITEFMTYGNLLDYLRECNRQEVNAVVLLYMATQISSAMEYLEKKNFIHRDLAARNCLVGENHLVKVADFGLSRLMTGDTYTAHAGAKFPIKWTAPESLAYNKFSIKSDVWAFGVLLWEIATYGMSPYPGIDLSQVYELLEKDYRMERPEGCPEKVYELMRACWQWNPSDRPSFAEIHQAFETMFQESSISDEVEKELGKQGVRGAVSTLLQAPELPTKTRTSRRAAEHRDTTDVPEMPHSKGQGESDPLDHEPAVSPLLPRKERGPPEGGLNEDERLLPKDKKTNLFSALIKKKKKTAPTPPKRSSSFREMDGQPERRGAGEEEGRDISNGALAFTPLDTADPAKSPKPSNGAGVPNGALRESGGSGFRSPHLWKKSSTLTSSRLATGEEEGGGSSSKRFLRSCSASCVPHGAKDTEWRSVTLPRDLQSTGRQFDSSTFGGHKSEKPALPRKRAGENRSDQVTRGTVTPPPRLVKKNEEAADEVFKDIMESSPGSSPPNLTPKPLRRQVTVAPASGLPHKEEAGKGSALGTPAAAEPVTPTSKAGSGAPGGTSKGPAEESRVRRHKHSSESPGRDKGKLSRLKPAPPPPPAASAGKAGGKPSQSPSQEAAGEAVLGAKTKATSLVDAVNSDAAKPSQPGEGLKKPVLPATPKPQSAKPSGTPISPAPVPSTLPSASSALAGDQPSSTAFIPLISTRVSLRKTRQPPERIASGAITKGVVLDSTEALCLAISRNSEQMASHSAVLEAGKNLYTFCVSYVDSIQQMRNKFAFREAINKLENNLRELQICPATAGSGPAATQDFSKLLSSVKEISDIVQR
Sequence (P11274 whole entry, further chain, the tested form may be a part): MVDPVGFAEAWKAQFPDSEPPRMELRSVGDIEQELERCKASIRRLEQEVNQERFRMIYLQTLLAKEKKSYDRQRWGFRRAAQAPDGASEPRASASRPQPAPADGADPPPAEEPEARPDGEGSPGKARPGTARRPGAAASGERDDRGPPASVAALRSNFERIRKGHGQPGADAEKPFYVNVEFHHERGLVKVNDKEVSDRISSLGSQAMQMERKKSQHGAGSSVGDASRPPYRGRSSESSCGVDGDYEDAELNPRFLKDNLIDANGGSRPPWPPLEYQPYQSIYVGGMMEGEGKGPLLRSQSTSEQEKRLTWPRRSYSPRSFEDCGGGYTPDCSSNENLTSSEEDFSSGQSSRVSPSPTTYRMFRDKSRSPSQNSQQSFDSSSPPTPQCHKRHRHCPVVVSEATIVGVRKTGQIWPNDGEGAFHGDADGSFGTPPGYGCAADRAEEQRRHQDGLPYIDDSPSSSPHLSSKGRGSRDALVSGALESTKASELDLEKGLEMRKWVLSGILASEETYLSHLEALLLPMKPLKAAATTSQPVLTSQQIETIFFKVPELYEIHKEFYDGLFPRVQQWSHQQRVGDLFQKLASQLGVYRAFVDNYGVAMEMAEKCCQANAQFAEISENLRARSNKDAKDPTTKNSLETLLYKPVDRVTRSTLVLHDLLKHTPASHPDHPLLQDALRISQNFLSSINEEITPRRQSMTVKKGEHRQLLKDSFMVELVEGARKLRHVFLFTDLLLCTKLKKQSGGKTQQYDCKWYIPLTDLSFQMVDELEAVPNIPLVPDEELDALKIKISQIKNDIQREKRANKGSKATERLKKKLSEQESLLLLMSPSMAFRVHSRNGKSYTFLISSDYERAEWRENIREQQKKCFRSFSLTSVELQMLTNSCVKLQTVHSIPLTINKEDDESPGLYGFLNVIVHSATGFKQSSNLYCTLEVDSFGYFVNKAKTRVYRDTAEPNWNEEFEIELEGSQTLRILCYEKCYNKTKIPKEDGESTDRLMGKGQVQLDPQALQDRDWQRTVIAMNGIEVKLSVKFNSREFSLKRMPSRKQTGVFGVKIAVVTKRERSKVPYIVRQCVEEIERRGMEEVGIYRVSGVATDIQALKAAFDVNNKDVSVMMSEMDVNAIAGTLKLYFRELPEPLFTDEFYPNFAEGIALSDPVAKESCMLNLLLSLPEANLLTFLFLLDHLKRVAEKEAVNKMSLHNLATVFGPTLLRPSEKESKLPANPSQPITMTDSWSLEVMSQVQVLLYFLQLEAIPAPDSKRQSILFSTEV
Test: Inhibition of wild type Bcr-Abl (unknown origin) incubated for 1 hr in presence of ATP by ADP-Glo kinase assay
pIC50: −log10 of the molar value.
parameter: pIC50

itemsmiles=O=C(Nc1n[nH]c2cc(-c3cn([C@@H]4CN[C@H](C(=O)Nc5ccc(Cl)c(C(F)(F)F)c5)C4)nn3)ccc12)C1CC1 testedtarget="Bcr/Abl fusion protein (Homo sapiens)" recordedvalue=8.82
itemsmiles=CC(C)(C)OC(=O)N1C[C@@H](n2cc(-c3ccc4nc(N)sc4n3)nn2)C[C@H]1C(=O)Nc1ccc(Cl)cc1Cl testedtarget="Bcr/Abl fusion protein (Homo sapiens)" recordedvalue=7.83
itemsmiles=O=C(NC1CC1)c1cncc(-c2cn([C@@H]3CN[C@H](C(=O)Nc4ccc(Cl)c(C(F)(F)F)c4)C3)nn2)c1 testedtarget="Bcr/Abl fusion protein (Homo sapiens)" recordedvalue=8.71
itemsmiles=CC(=O)Nc1nc2ccc(-c3cn([C@@H]4CN[C@H](C(=O)Nc5ccc(Cl)c(C(F)(F)F)c5)C4)nn3)nc2s1 testedtarget="Bcr/Abl fusion protein (Homo sapiens)" recordedvalue=7.63
itemsmiles=O=C(Nc1n[nH]c2cc(-c3cn([C@@H]4CN[C@H](C(=O)Nc5ccc(Cl)cc5Cl)C4)nn3)ccc12)C1CC1 testedtarget="Bcr/Abl fusion protein (Homo sapiens)" recordedvalue=9.08
itemsmiles=O=C(Nc1ccc(Cl)c(C(F)(F)F)c1)[C@@H]1C[C@H](n2cc(-c3cncc(C(=O)N4CCOCC4)c3)nn2)CN1 testedtarget="Bcr/Abl fusion protein (Homo sapiens)" recordedvalue=7.22
itemsmiles=Nc1n[nH]c2cc(-c3cn([C@@H]4CN[C@H](C(=O)Nc5ccc(Br)cc5)C4)nn3)ccc12 testedtarget="Bcr/Abl fusion protein (Homo sapiens)" recordedvalue=7.36
itemsmiles=CC(C)(C)C(=O)Nc1ccc(-c2cn([C@@H]3CN[C@H](C(=O)Nc4ccc(Cl)c(C(F)(F)F)c4)C3)nn2)cn1 testedtarget="Bcr/Abl fusion protein (Homo sapiens)" recordedvalue=7.38
itemsmiles=CC(C)(C)OC(=O)N1C[C@@H](n2cc(-c3ccc(N)nc3)nn2)C[C@H]1C(=O)Nc1ccc(Cl)c(C(F)(F)F)c1 testedtarget="Bcr/Abl fusion protein (Homo sapiens)" recordedvalue=9.03
itemsmiles=CC(C)(C)OC(=O)N1C[C@@H](n2cc(-c3ccc4nc(N)sc4n3)nn2)C[C@H]1C(=O)Nc1ccc(F)c(F)c1 testedtarget="Bcr/Abl fusion protein (Homo sapiens)" recordedvalue=7.76
itemsmiles=O=C(Nc1nc2ccc(-c3cn([C@@H]4CN[C@H](C(=O)Nc5ccc(Br)cc5)C4)nn3)nc2s1)C1CC1 testedtarget="Bcr/Abl fusion protein (Homo sapiens)" recordedvalue=7.98
itemsmiles=CS(=O)(=O)Nc1ccc(-c2cn([C@@H]3CN[C@H](C(=O)Nc4ccc(Cl)c(C(F)(F)F)c4)C3)nn2)cn1 testedtarget="Bcr/Abl fusion protein (Homo sapiens)" recordedvalue=9.31
itemsmiles=Nc1n[nH]c2cc(-c3cn([C@@H]4CN[C@H](C(=O)Nc5ccc(Cl)cc5Cl)C4)nn3)ccc12 testedtarget="Bcr/Abl fusion protein (Homo sapiens)" recordedvalue=8.07
itemsmiles=CC(C)(C)OC(=O)N1C[C@@H](n2cc(-c3ccc4c(N)n[nH]c4c3)nn2)C[C@H]1C(=O)Nc1ccc(Cl)c(C(F)(F)F)c1 testedtarget="Bcr/Abl fusion protein (Homo sapiens)" recordedvalue=7.66
itemsmiles=O=C(Nc1n[nH]c2cc(-c3cn([C@@H]4CN[C@H](C(=O)Nc5ccc(Br)cc5)C4)nn3)ccc12)C1CC1 testedtarget="Bcr/Abl fusion protein (Homo sapiens)" recordedvalue=8.26
